system: Plasmodium falciparum NF54 stage IV/V gametocytes; assay: % inhibition of gametocyte viability (ATP bioluminescence); higher = more inhibition; conditions: 5 µM; 24 h
Experimental endpoint: % inhibition of gametocyte viability

Input line: Look up and report measured % inhibition of gametocyte viability for this entry: Cc1nc2ccc(Cl)cc2c(-c2ccccc2)c1CC(=O)O
Output line: < 0%

Input line: Note % inhibition of gametocyte viability for the compound shown: CCC(C)(C)c1ccc(CC(C)CN2C[C@@H](C)O[C@@H](C)C2)cc1 (stereo not given in full)
Output line: < 0%

Input line: Kindly indicate its recorded % inhibition of gametocyte viability. Item: Nc1cnn(C2OC(CO)C(O)C2O)c(=O)n1 (stereo not given)
Output line: < 0%

Input line: Determine its reported % inhibition of gametocyte viability: COc1cc(NC(=O)CN2C(=O)NC(c3ccccc3)(c3ccccc3)C2=O)cc(OC)c1
Output line: < 0%

Input line: Please give the documented % inhibition of gametocyte viability of C[C@@H](c1nc(-c2ccc(C#N)cc2)cs1)[C@](O)(Cn1cncn1)c1ccc(F)cc1F
Output line: < 0%

Input line: Fill in % inhibition of gametocyte viability for record O=C(c1cc(O)nc2ccccc12)N1CCN(c2ccccc2)CC1
Output line: 10.4%

Input line: Name the recorded % inhibition of gametocyte viability of the compound listed here: O=C1[C@H](CC[C@H](O)c2ccc(F)cc2)[C@@H](c2ccc(O)cc2)N1c1ccc(F)cc1
Output line: < 0%

Input line: # return recorded % inhibition of gametocyte viability for input Nc1nc(O)c(Br)c(-c2ccccc2)n1
Output line: < 0%

Input line: Give the reported value of % inhibition of gametocyte viability for this record: CCN(CC)CCn1c(=N)n(CC(O)COc2ccc(Cl)cc2Cl)c2ccccc21 (stereo not given)
Output line: 90.7%

Input line: State its % inhibition of gametocyte viability: Cc1cc(CCOc2c(C)cc(-c3nnn(C)n3)cc2C)on1
Output line: < 0%

---

tested on: Plasmodium falciparum NF54 stage IV/V gametocytes; experiment: % inhibition of gametocyte viability (ATP bioluminescence); higher = more inhibition; details: 5 µM; 24 h
Experimental endpoint: % inhibition of gametocyte viability

Input line: Report value only: % inhibition of gametocyte viability, Plasmodium falciparum NF54 stage IV/V gametocytes, CCCCCOc1ccc(/C=C2\Oc3c(ccc(O)c3O)C2=O)c(O)c1
Output line: < 0%

Input line: For Plasmodium falciparum NF54 stage IV/V gametocytes, give % inhibition of gametocyte viability of the listed molecule: CN(C)[C@@H]1C(=O)C(C(N)=O)=C(O)[C@@]2(O)C(=O)C3=C(O)c4c(O)c(NC(=O)CN5CCCC5)cc(F)c4C[C@H]3C[C@@H]12
Output line: < 0%

Input line: Identify measured % inhibition of gametocyte viability obtained with Plasmodium falciparum NF54 stage IV/V gametocytes for Cc1ccccc1NC(=O)Nc1cccc([N+](=O)[O-])c1 .
Output line: < 0%

Input line: Fill: % inhibition of gametocyte viability (Plasmodium falciparum NF54 stage IV/V gametocytes) for this molecule C[C@H]1COc2c(N3CCN(C)CC3)c(F)cc3c(=O)c(C(=O)O)cn1c23
Output line: 1.75%

Input line: Give measured % inhibition of gametocyte viability for C[C@H](NC(=O)C(=O)Nc1ccccc1C(C)(C)C)C(=O)N[C@@H](CC(=O)O)C(=O)COc1c(F)c(F)cc(F)c1F (Plasmodium falciparum NF54 stage IV/V gametocytes).
Output line: < 0%

Input line: Retrieve % inhibition of gametocyte viability on Plasmodium falciparum NF54 stage IV/V gametocytes; query CN(C)c1[nH]c(=O)ncc1F
Output line: < 0%

Input line: Under Plasmodium falciparum NF54 stage IV/V gametocytes, report % inhibition of gametocyte viability for O=c1cc(OCc2ccccc2)ccn1Cc1ccccc1
Output line: < 0%

Input line: // fetch % inhibition of gametocyte viability; item: CC(C)=CCC/C(C)=C/CNCCNC1C2CC3CC(C2)CC1C3 (centres undefined) ; system: Plasmodium falciparum NF54 stage IV/V gametocytes
Output line: 90.8%

Input line: Under Plasmodium falciparum NF54 stage IV/V gametocytes: report % inhibition of gametocyte viability of CC#C[C@]1(O)CC[C@H]2[C@@H]3CCC4=CC(=O)CCC4=C3[C@@H](c3ccc(N(C)C)cc3)C[C@@]21C .
Output line: < 0%

---

Answer each item with its documented % viability of CHO cells.
system: CHO; test: % viability of CHO cells (MTT); higher = less toxic; settings: 2 µM; 48 h
Unit % implied. Number only.

Input line: Respond only with % viability of CHO cells recorded for O=P(O)(O)C(CCCc1cccc(Oc2ccccc2)c1)S(=O)(=O)O (stereo not given)
Output line: 113

Input line: Quote % viability of CHO cells reported for NC(=O)c1c(N)sc2c1CCCCC2 please.
Output line: 87

Input line: Give the measured % viability of CHO cells for Oc1ccc(NCc2ccccc2OCc2ccccc2)cc1
Output line: 97.9

Input line: Report % viability of CHO cells, nothing else, for this compound: CN(C)CCCOc1ccc(-c2ccc3ncc4c(c3c2)n(C2CCOCC2)c(=O)n4C)cn1
Output line: 99.8

Input line: For the compound O=S(=O)(Nc1ccc(-n2cccc2)cc1)c1ccc(Cl)c(Cl)c1 , give its measured % viability of CHO cells value.
Output line: 95

Input line: Read off the recorded % viability of CHO cells for CCOc1ccc(C(=O)NCCc2ccccc2)cc1
Output line: 119

Input line: Output measured % viability of CHO cells for this item: Cc1cc(C2CCCCC2)n(O)c(=O)c1
Output line: 95.2

Input line: Indicate its recorded % viability of CHO cells; the compound in question is O[C@@](Cn1cnnn1)(c1ccc(F)cc1F)C(F)(F)c1ccc(-c2ccc(OCC(F)(F)F)cc2)cn1
Output line: 92.3

Input line: Look up and state reported % viability of CHO cells for Cc1c[nH]c(=O)nc1NCc1ccccc1
Output line: 36.1

Input line: Tell us which % viability of CHO cells value is on record for Nc1nnnn1CCOc1c2[nH]c3ccc(Cl)cc3c2cc2c1[nH]c1ccc(Cl)cc12
Output line: 98.6

---

tested on: Plasmodium falciparum NF54 stage IV/V gametocytes; assay: % inhibition of gametocyte viability (luciferase reporter); higher = more inhibition; details: 1 µM; 48 h
For each of the compounds below, state its % inhibition of gametocyte viability.
I only need the number, in %, no unit after it.

Input line: Give the measured % inhibition of gametocyte viability for Nc1nc(C(F)(F)F)cc2c1[nH]c(=O)n2Cc1ccccc1
Output line: 18.1

Input line: Give the reported % inhibition of gametocyte viability for this compound. CCCCC(CC)CNC(=N)NC(=N)NCCCCCCNC(=N)NC(=N)NCC(CC)CCCC (stereo not given)
Output line: 98.7

---

tested on: Plasmodium falciparum NF54 stage IV/V gametocytes; assay: % inhibition of gametocyte viability (PrestoBlue); higher = more inhibition; conditions: 5 µM; 48 h
Kindly note that classification relies on % inhibition of gametocyte viability with these boundaries: lower band: < 10%; central band: ≥ 10% and < 20%; upper band: ≥ 20%

Input line: Which band does O=C(O)COc1cccc2c1CC[C@](O)(COC(=O)N(c1ccccc1)c1ccccc1)C2 fall in?
Output line: upper band

Input line: Into which bin does this compound go? Nc1nc2c(Cc3cccnc3)c[nH]c2c(=O)[nH]1
Output line: upper band

Input line: Place this compound in its band: OC1O[C@H](CSc2ccc(F)cc2)[C@@H](O)[C@H]1O (some centres undefined)
Output line: central band

Input line: Form: Item = COc1cc(NC(=O)CN2C(=O)NC(c3ccccc3)(c3ccccc3)C2=O)cc(OC)c1 ; Class = ?
Output line: upper band

Input line: Categorize the following entry: CCOC(=O)N[C@@H]1CC[C@@H]2[C@@H](C1)C[C@H]1C(=O)O[C@H](C)[C@H]1[C@H]2/C=C/c1ccc(-c2cccc(F)c2)cn1
Output line: lower band

Input line: Assign a category based on measured % inhibition of gametocyte viability for COc1cc(C(C(=O)NC2CCCCC2)N(C(=O)Cc2c[nH]c3ccccc23)c2ccc(C(C)C)cc2)cc(OC)c1OC (centres undefined) and give only the class name.
Output line: upper band

Input line: Which band does CC(Cc1ccccc1)C(=O)Nc1ccc(Cl)cc1C(=O)O (centres undefined) fall in?
Output line: lower band

Input line: Categorize the following entry: Cc1cc(Nc2ccc(F)cc2)nc(SCc2nc3ccccc3[nH]2)n1
Output line: upper band

Input line: Hello team, could you let me know which band the following compound falls into: N[C@H](CCC(=O)N[C@@H](Cc1c[nH]c2ccccc12)C(=O)O)C(=O)O
Output line: lower band

Input line: Each compound maps to one class by % inhibition of gametocyte viability. Which class for O=[N+]([O-])c1cn2c(n1)OC[C@@H](OCc1ccc(OC(F)(F)F)cc1)C2 ?
Output line: lower band

Input line: Categorize the following entry: CN(C)c1[nH]c(=O)ncc1F
Output line: lower band

Input line: Classify this compound: CCOc1noc2cc(OCCC3CCN(c4ccc(C)nn4)CC3)ccc12
Output line: upper band

Input line: Please report the category associated with O=C(Nc1nnc(-c2ccc(Cl)cc2)o1)c1ccc(F)cc1 , nothing else.
Output line: lower band

Input line: In plain terms, what class is Cc1ccc(C)c(OCCCCCCN2C[C@H](O)[C@@H](O)[C@H](O)[C@H]2CO)c1 ?
Output line: lower band

Input line: Place this compound in its band: Nc1ccc(-c2nc3cc(C(F)(F)F)ccc3n2C23CC4CC(CC(C4)C2)C3)cc1
Output line: central band

Input line: # bin label for CC[C@H]1OC(=O)[C@H](C)[C@@H](O[C@H]2C[C@@](C)(OC)[C@@H](O)[C@H](C)O2)[C@H](C)[C@@H](O[C@@H]2O[C@H](C)C[C@H](N(C)C)[C@H]2O)[C@](C)(O)C[C@@H](C)C(=O)[C@H](C)[C@@H](O)[C@]1(C)O
Output line: upper band

Input line: Band for O=C(Nc1nnc(-c2ccc(Cl)cc2)o1)c1nc2ccccc2s1 ?
Output line: central band

Input line: In plain terms, what class is COc1ccc2cc3[n+](cc2c1OCCN(CCn1cncn1)Cc1ccc(F)cc1F)CCc1cc2c(cc1-3)OCO2 ?
Output line: lower band

Input line: Returns: class label. Input: FC(F)(F)c1cc(C(F)(F)F)c2ccc3nc(-c4nnco4)cn3c2n1
Output line: upper band

Input line: Please report the category associated with C[C@@H](NC(=O)c1cccc(-c2c[nH]c(-c3cc4ccccc4cn3)n2)c1)c1ccc(F)cc1 , nothing else.
Output line: lower band

Input line: Which bin, given its % inhibition of gametocyte viability, does O=C(c1ccc(F)cc1)N1CCN2C(=O)c3ccccc3C12c1ccccc1 (centres undefined) occupy?
Output line: central band

Input line: Please let me know in which category the item CCOC(=O)/C=C/[C@H](C[C@@H]1CCNC1=O)NC(=O)[C@H](CC)n1cccc(NC(=O)c2cc(C)on2)c1=O belongs.
Output line: central band

Input line: Class for NC(=O)c1cnccn1 ?
Output line: upper band

Input line: Category of O=C(c1ccccc1)N1CCN(c2ccccc2NC(=O)C(Cl)(Cl)Cl)CC1 :
Output line: lower band

Input line: GET /class?item= CCOC(=O)N1CCN(c2ccc(Cl)cc2)CC1
Output line: lower band

Input line: For the record CCNC(=O)Nc1cn2c(-c3ncc(CC)cn3)cc(-c3cccnc3)cc2n1 , report the class its % inhibition of gametocyte viability corresponds to.
Output line: upper band

Input line: Pick a category. Item: C=C(C)n1c(=O)n(Cc2ccccc2C)c2ccccc21
Output line: lower band

Input line: Sort O=C(Cn1cnc2ccccc2c1=O)Nc1ccccc1 into one of the categories.
Output line: upper band

Input line: In plain terms, what class is CN1c2ccc(Cl)cc2N(c2ccccc2)C(=O)c2cn(Cc3ccc(CN4CCOCC4)cc3)nc21 ?
Output line: upper band
